Data origin: paper PMC5815904

# Subject Of Test: Pannexin 1 (PANX1) (Homo sapiens, UniProt Q96RD7)
# Sequence (Q96RD7 1-379 limits assumed): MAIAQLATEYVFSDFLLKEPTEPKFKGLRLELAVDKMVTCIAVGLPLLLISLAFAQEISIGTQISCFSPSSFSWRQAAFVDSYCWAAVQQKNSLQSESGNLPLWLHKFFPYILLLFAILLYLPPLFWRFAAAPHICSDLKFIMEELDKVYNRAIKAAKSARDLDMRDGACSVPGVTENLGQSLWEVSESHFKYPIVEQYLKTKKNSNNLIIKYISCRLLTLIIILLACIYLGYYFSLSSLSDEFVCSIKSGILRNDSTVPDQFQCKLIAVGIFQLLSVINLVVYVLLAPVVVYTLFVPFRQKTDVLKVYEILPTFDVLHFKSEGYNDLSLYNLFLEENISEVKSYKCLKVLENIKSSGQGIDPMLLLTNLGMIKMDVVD
# Assay Explanation: whole-cell patch clamp in HEK293T
Experimental Endpoint: pIC50
Lab note: report pIC50 as minus log10 of the concentration in molar units, number only.

For the molecule CC(=O)S[C@@H]1CC2=CC(=O)CC[C@]2(C)[C@H]2CC[C@@]3(C)[C@@H](CC[C@@]34CCC(=O)O4)[C@H]12 , what pIC50 is on record?
5.06
